Assay comment: CCTE_Shafer_MEA_dev_inter_network_spike_interval_mean: CCTE's Neural Network Formation Assay for Mean Inter-network Spike Interval, Shafer Lab (AID 2284047)
Calls of active or inactive are those of the source. The calls were made as follows: active = hit-call score of the fitted dose curve at least 0.9, where 1 is the maximum; inactive = score below 0.9.
Measured parameter: outcome

Field: example entries. Status: answers known.
| Compound | outcome |
| --- | --- |
| F | inactive |
| BrC1CC(Br)CC(Br)CC(Br)CC(Br)CC(Br)C1 (stereo not drawn) | inactive |
| Cc1[nH]n(C)c(=O)c1C(=O)c1ccc(C(F)(F)F)cc1S(C)(=O)=O | inactive |
| O=C1CC2(CCCC2)CC(=O)N1CCCCN1CCN(c2ncccn2)CC1 | inactive |
| CC(=O)N[C@@H](CC(=O)O)C(=O)O | inactive |

Suppose we examine the compound `C[C@@H]1CCO[C@H]2Cn3cc(C(=O)NCc4ccc(F)cc4F)c(=O)c(O)c3C(=O)N12` ; what outcome value has been reported?
inactive

// outcome lookup, key: CCCCCC=C(C)C(CC)CCO (stereo not drawn)
inactive

# input compound: CC(CNC(=S)[S-])NC(=S)[S-].[Zn+2] (stereo not drawn) ; wanted: its outcome
inactive

----------
Assay comment: TOX21_p53_BLA_p5_viability: Viability Assessment in the Tox21 HCT-116 p53 Agonism Beta-lactamase Assay, Phase 5 (AID 2283600)
Text: TOX21_p53_BLA_p5 is a cell-based, single-readout assay that uses HCT116, a human intestinal cell line, […] in a 1536-well plate.TOX21_p53_BLA_p5_viability is an assay readout measuring cellular ATP content and detected with CellTiter-Glo Luciferase-coupled ATP quantitation.TOX21_p53_BLA_p5_viability used a type of viability reporter where loss-of-signal activity can be used to understand changes in the cell viability. […]
Results filed as inconclusive are left out. Activity calls are given as the source filed them. How the source made its calls: active means hit-call score of the fitted dose curve at least 0.9, where 1 is the maximum; inconclusive means response in the unintended direction; inactive means score below 0.9.
Measured parameter: outcome

Below are worked cases with known answers.
| Compound | outcome |
| --- | --- |
| C[C@](N)(Cc1ccc(O)cc1)C(=O)O | inactive |
| C[C@@H](N)C(=O)O | inactive |
| C=CC(=O)OCCOCC(CC)(COCCOC(=O)C=C)COCCOC(=O)C=C | inactive |
| C[Se]CC[C@H](N)C(=O)O | inactive |
| NS(=O)(=O)c1cc2c(cc1Cl)NC(Cc1ccccc1)NS2(=O)=O (centres undefined) | inactive |

// query outcome value for entry `Cc1cc(=O)c(C(=O)N[C@@H](C(=O)N[C@@H]2C(=O)N3C(C(=O)O)=C(CSc4nnnn4C)CS[C@H]23)c2ccc(O)cc2)c[nH]1`
inactive

Item N[C@H]1CN(c2c(F)cc3c(=O)c(C(=O)O)cn(C4C[C@H]4F)c3c2Cl)CC12CC2 (some centres undefined) has what recorded outcome?
inactive

Which value of outcome has been reported for COc1ccc(C2(C#N)CCC(C(=O)O)CC2)cc1OC1CCCC1 (centres undefined) in the records?
inactive

----------
Assay comment: CCTE_Shafer_MEA_dev_AB: CCTE's Alamar Blue Assay for Cytotoxicity in the Neural Network Formation Assay, Shafer Lab (AID 2284083);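 also: resazurin reduction fluorescence as viability of cultured neurons; twelve days of exposure from plating with re-dosing on DIV 5 and 9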
Inconclusive results are not listed. Active and inactive are the calls of the source. Rule for the calls: active = hit-call score of the fitted dose curve at least 0.9, where 1 is the maximum; inconclusive = response in the unintended direction; inactive = score below 0.9.
Pick one and only one: active, inactive

| Compound | Discrete label |
| --- | --- |
| CCCCCC=C(C)C(CC)CCO (configuration not stated) | inactive |
| CCc1ccccc1 | active |
| [O]=[V]([OH])([OH])[OH] | active |
| O=C1CC2(CCCC2)CC(=O)N1CCCCN1CCN(c2ncccn2)CC1 | active |
| C[C@@H]1CCO[C@H]2Cn3cc(C(=O)NCc4ccc(F)cc4F)c(=O)c(O)c3C(=O)N12 | active |

Could you check what this test reported for `CC(C)O` ?
inactive

Record lookup: outcome of this test for `c1ccc2c(c1)ccc1c3ccccc3ccc21` ?
inactive

----------
Assay comment: IUF_NPC4_neurite_area_120hr: Leibniz Research Institute for Environmental Medicine (IUF) 120-hour Neuronal Morphology Assay for Neurite Area (NPC4) (AID 2284305)
Inconclusive results are not listed. The source made the active and inactive calls. How the source made its calls: active means hit-call score of the fitted dose curve at least 0.9, where 1 is the maximum; inconclusive means response in the unintended direction; inactive means score below 0.9.
Classes to choose from: active, inactive

| Compound | Discrete label |
| --- | --- |
| CCCCCC=C(C)C(CC)CCO (centres undefined) | inactive |

Which result was noted for this compound in the test: `CN(C)CCCn1cc(C2=C(c3c[nH]c4ccccc34)C(=O)NC2=O)c2ccccc21`
active

What was the test verdict on `CCCCOCCOP(=O)(O)OCCOCCCC` ?
inactive

// return assay outcome for CCCCCC(C)(CC)C(=O)NC (centres undefined)
inactive

For this compound, state the assay outcome: BrC1CC(Br)CC(Br)CC(Br)CC(Br)CC(Br)C1 (centres undefined)
active

What classification did `CC(=O)OC/N=[N+](\C)[O-]` end up with in this test?
inactive

Check the results log: what was the call for `F` ?
inactive

Record request — test call for `O=C1CC2(CCCC2)CC(=O)N1CCCCN1CCN(c2ncccn2)CC1`
inactive

Called result for `Cc1[nH]n(C)c(=O)c1C(=O)c1ccc(C(F)(F)F)cc1S(C)(=O)=O`
inactive

----------
Assay comment: CCTE_Mundy_HCI_Cortical_Synap_Neur_Matur_NeuriteSpotCountPerNeuriteLength: CCTE's Synaptogenesis and Neurite Maturation Assay in rat cortical cells for Neurite Spot Count per Neurite Length, Mundy Lab (AID 2284210)
Activity calls are given as the source filed them. How the source made its calls: active means hit-call score of the fitted dose curve at least 0.9, where 1 is the maximum; inactive means score below 0.9.
Measured parameter: AC50

| Compound | Result |
| --- | --- |
| C[C@@H]1CCO[C@H]2Cn3cc(C(=O)NCc4ccc(F)cc4F)c(=O)c(O)c3C(=O)N12 | 7.38 µM (active) |
| CC(C)c1nn(C(=O)NC(C)(C)C)c(=O)n1N | inactive |
| CC(=O)N[C@@H](CC(=O)O)C(=O)O | inactive |
| [O]=[V]([OH])([OH])[OH] | 40.2 µM (active) |

// AC50 lookup, key: CC(CNC(=S)[S-])NC(=S)[S-].[Zn+2] (configuration not stated)
inactive

AC50 for `C[C@@H]1CC[C@@H](C(C)(C)O)[C@H](O)C1` ?
inactive

Can you look up the measured AC50 of BrC1CC(Br)CC(Br)CC(Br)CC(Br)CC(Br)C1 (configuration not stated) for me?
3.49 µM (active)

----------
Assay comment: IUF_NPC3_neuronal_differentiation_120hr: Leibniz Research Institute for Environmental Medicine (IUF) 120-hour Neuronal Differentiation Assay (NPC3) (AID 2284301)
The source made the active and inactive calls. The calls were made as follows: active = hit-call score of the fitted dose curve at least 0.9, where 1 is the maximum; inactive = score below 0.9.
Write down one outcome, taken from active, inactive

Look over these answered cases.
| Molecule | Discrete label |
| --- | --- |
| CC(=O)N[C@@H](CC(=O)O)C(=O)O | inactive |
| CN(C)CCCn1cc(C2=C(c3c[nH]c4ccccc34)C(=O)NC2=O)c2ccccc21 | active |
| CC(C)O | inactive |

Consider the additional molecule presented here.
Name the outcome recorded for `C[C@@H]1CC[C@@H](C(C)(C)O)[C@H](O)C1` in the assay.
inactive

----------
Assay comment: CCTE_Mundy_HCI_Cortical_Synap_Neur_Matur_BPCount: CCTE's Synaptogenesis and Neurite Maturation Assay in rat cortical cells for Branch Point Count, Mundy Lab (AID 2284211)
Active and inactive are the calls of the source. Rule for the calls: active = hit-call score of the fitted dose curve at least 0.9, where 1 is the maximum; inactive = score below 0.9.
Measured parameter: AC50

| Molecule | AC50 |
| --- | --- |
| C[C@@H]1CC[C@@H](C(C)(C)O)[C@H](O)C1 | inactive |
| CC(CNC(=S)[S-])NC(=S)[S-].[Zn+2] (centres undefined) | 50 µM (active) |
| C[C@@H]1CCO[C@H]2Cn3cc(C(=O)NCc4ccc(F)cc4F)c(=O)c(O)c3C(=O)N12 | 1.14 µM (active) |
| CCc1ccccc1 | inactive |
| [O]=[V]([OH])([OH])[OH] | 12.2 µM (active) |
| CC(C)c1nn(C(=O)NC(C)(C)C)c(=O)n1N | inactive |
| CC(C)O | inactive |
| F | inactive |

Next, consider the following molecule.
Using the record for CCCCCC(C)(CC)C(=O)NC (centres undefined) , report its AC50.
inactive

----------
Assay comment: IUF_NPC2a_radial_glia_migration_72hr: Leibniz Research Institute for Environmental Medicine (IUF) 72-hour Neural Progenitor Cell Migration Assay for Radial Glia Migration (NPC2a) (AID 2284299)
Activity calls are given as the source filed them. Rule for the calls: active = hit-call score of the fitted dose curve at least 0.9, where 1 is the maximum; inactive = score below 0.9.
I would appreciate it if you answered using one of these outcomes: active, inactive

| Compound | Discrete label |
| --- | --- |
| CC(=O)OC/N=[N+](\C)[O-] | inactive |
| CCCCCC(C)(CC)C(=O)NC (stereo unspecified) | active |
| CCCCOCCOP(=O)(O)OCCOCCCC | inactive |
| BrC1CC(Br)CC(Br)CC(Br)CC(Br)CC(Br)C1 (stereo unspecified) | inactive |
| CC(C)c1nn(C(=O)NC(C)(C)C)c(=O)n1N | inactive |
| Cc1[nH]n(C)c(=O)c1C(=O)c1ccc(C(F)(F)F)cc1S(C)(=O)=O | inactive |

Outcome? CC(CNC(=S)[S-])NC(=S)[S-].[Zn+2] (stereo unspecified)
inactive

Short answer needed: outcome of this test for `CCc1ccccc1` ?
inactive

Any idea what this test logged for `CN(C)CCCn1cc(C2=C(c3c[nH]c4ccccc34)C(=O)NC2=O)c2ccccc21` ?
active

Tell me the recorded outcome of this test for `CC(C)O` .
inactive

Hi, do you know how `C[C@@H]1CCO[C@H]2Cn3cc(C(=O)NCc4ccc(F)cc4F)c(=O)c(O)c3C(=O)N12` came out in this test?
inactive
